- tgt: T1, c-Met-Fc chimera protein (UniProt P08581 25-932, limits assumed)
- T1 construct: Captured on the SPR chip by an anti-IgG antibody; not shown: Fc part
- assay: SPR presumed (Biacore as in 9-1; method not given), c-Met-Fc on chip
Bridges are numbered along the chain shown (N, C = ends). Where no end group is shown, it is not given here. [ ]: non-standard residue; d: D form. NMeR = CN[C@@H](CCCNC(=N)N)C(=O)O; NMeE = CN[C@@H](CCC(=O)O)C(=O)O; NMeQ = CN[C@@H](CCC(N)=O)C(=O)O; NMeN = CN[C@@H](CC(N)=O)C(=O)O; NMeV = CN[C@H](C(=O)O)C(C)C; NMeC = CN[C@@H](CS)C(=O)O
Note to self: use Criterion met only for Kd readings below 30 nM; a reading exactly at 30 nM still gets Criterion not met.

[[record]]
binder = "{CH2CO}-YRQFNRRTHE[NMeV]WNLDCG (thioether N-16) [N11, N-methylated D4-3 peptide]"
discrete_label = "Criterion not met"

[[record]]
binder = "{CH2CO}-YRQFNRRTHEVW[NMeN]LDCG (thioether N-16) [N13, N-methylated D4-3 peptide]"
discrete_label = "Criterion not met"

[[record]]
binder = "{CH2CO}-YR[NMeQ]FNRRTHEVWNLDCG (thioether N-16 (inferred)) [N3, N-methylated D4-3 peptide]"
discrete_label = "Criterion not met"

[[record]]
binder = "{CH2CO}-YRQFN[NMeR]RTHEVWNLDCG (thioether N-16) [D4-3-N6]"
discrete_label = "Criterion not met"

[[record]]
binder = "{CH2CO}-YRQFNRRTHEVWNLD[NMeC]G (thioether N-16 (inferred)) [N16, N-methylated D4-3 peptide]"
discrete_label = "Criterion met"

[[record]]
binder = "{CH2CO}-YRQFNRRTH[NMeE]VWNLDCG (thioether N-16) [N10, N-methylated D4-3 peptide]"
discrete_label = "Criterion not met"

